Target: recombinant HDAC8 (Homo sapiens)
Construct: purchased BPS Bioscience
Sequence (Q9BY41 1-377): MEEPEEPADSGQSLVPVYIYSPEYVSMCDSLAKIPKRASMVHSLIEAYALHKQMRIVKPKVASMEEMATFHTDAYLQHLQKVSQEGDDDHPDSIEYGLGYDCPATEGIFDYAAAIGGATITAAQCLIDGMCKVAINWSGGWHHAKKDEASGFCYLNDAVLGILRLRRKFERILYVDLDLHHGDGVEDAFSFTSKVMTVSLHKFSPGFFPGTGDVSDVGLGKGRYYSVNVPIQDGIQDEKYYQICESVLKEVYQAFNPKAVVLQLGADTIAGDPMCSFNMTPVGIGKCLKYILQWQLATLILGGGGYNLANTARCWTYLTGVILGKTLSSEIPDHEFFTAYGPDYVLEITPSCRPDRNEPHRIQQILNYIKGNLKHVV
Test: Recombinant HDAC8 inhibition (HDAC-Glo)
Assay type: biochemical
Settings: HDAC8 over HDAC1; calculated from IC50 values
readout: HDAC8 fold selectivity HDAC1 (fold)

{"columns": ["compound", "system-name", "u", "HDAC8 fold selectivity HDAC1"],
 "data": [
  ["O=C(CCC(CCCC(=O)Nc1ccccc1)Cc1ccccc1)NO (racemic)", "recombinant HDAC8 (Homo sapiens)", "fold", 510]
]}

a: O=C(CC[C@@H](CCCC(=O)Nc1ccccc1)Cc1ccccc1)NO [(R)-1f]
b: CCCCCCC(CCCC(=O)Nc1ccccc1)CCC(=O)NO (racemic)
c: O=C(CC[C@H](CCCC(=O)Nc1ccccc1)Cc1ccccc1)NO [(S)-1f]
d: CCC(CCCC(=O)Nc1ccccc1)CCC(=O)NO (racemic)
Exercise: Rank order required: HDAC8 fold selectivity HDAC1, descending. Rank the items, then write their labels in that order.
Key: c, b, a, d
(c: 930 fold, b: 440 fold, a: 260 fold, d: 34 fold)

* * *

biological target: UniProtKB Q92769; experiment: ELISA-based HDAC activity assay, HDAC2; details: read-out: Deacetylase activity (%) HDAC2
Sequence (Q92769 whole entry): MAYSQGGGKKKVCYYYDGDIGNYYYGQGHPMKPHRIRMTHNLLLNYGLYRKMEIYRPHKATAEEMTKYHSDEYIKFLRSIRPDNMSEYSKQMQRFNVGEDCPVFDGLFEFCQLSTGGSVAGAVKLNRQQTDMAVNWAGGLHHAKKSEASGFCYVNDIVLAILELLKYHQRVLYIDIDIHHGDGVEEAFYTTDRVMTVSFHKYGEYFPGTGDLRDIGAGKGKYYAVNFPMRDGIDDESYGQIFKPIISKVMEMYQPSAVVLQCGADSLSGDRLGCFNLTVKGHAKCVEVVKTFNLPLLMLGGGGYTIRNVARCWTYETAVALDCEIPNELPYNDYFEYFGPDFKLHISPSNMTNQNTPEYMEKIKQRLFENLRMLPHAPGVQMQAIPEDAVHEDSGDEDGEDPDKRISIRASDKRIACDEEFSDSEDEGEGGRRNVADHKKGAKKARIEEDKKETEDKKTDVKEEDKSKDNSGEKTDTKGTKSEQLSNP
readout: activity at 80 µM (%)

{"columns": ["molecule", "recorded-measurement"],
 "data": [
  ["CCCCCCC(CCCC(=O)Nc1ccccc1)CCC(=O)NO (racemic)", 31],
  ["O=C(CC[C@@H](CCCC(=O)Nc1ccccc1)Cc1ccccc1)NO [(R)-1f]", 29],
  ["O=C(CCC(CCCC(=O)Nc1ccccc1)Cc1ccccc1)NO (racemic)", 27],
  ["O=C(CC[C@H](CCCC(=O)Nc1ccccc1)Cc1ccccc1)NO [(S)-1f]", 37]
]}
